Give PBM binding z-score for every item shown.
Test system: FXR:RXRa (NR concentration 270 nM, RXRa partner concentration 90 nM)
assay.name: PBM binding z-score (relative to random genomic background probes); higher = stronger binding; sequences stand for … in GC…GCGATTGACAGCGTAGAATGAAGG
Numbers only.

Worked examples follow.
input.sequence: CGAACTAGGTCACCAGGAAAGTGAAGAGGTTGGA
target.desc: FXR:RXRa (NR concentration 270 nM, RXRa partner concentration 90 nM)
numeric.result: 3.52

input.sequence: GGAACGAGGGCAAAGGTGATAGCATCTGTCGACG
target.desc: FXR:RXRa (NR concentration 270 nM, RXRa partner concentration 90 nM)
numeric.result: 2.08

input.sequence: ACTAGTGGGTCAGCTGAGGTCACACACAATTCGG
target.desc: FXR:RXRa (NR concentration 270 nM, RXRa partner concentration 90 nM)
numeric.result: 4.98

input.sequence: CCTACTGGGCCATTCAGAGGACATTGATCATATG
target.desc: FXR:RXRa (NR concentration 270 nM, RXRa partner concentration 90 nM)
numeric.result: -0.067

Provide the reported PBM binding z-score of each entry below, same order.
1. CGAACTAGGTCCAAGGACAGTGAAAGGCGACGTA
2. CGTCCAAGGTCAACGCTAGGTCAGTGAAAGCATT
3. ATATGTAGGTTACGGTCATTCAGAAAGTAGGGAA
4. ATATGCAGGTTATCGGGTCATTCAGTTTGCGCAT
5. ATATGTAGGTTAGGGTCATCCAGAAAGTAGGGAA
6. CTAACTAGGTCACAGAGGTCAAAGTCCGTGCGTA

[A]
1: -0.44; 2: 7.34; 3: 2.04; 4: 3.37; 5: 5.11; 6: 7.38

Hey, quick one: what's PBM binding z-score for each of these?
1. CGTCAAAGTTCAAGTTAACGTAACAGAAAGCAGC
2. ATCGAAAGGTCGAAGGTGAGTACACCCACCCGAA

[A]
[7.26, 4.49]

* * *

Test system: RARg homodimer (NR concentration 270 nM)
assay.name: PBM binding z-score (relative to random genomic background probes); higher = stronger binding; sequences stand for … in GC…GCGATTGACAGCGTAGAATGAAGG
PBM binding z-score below 1 gives condition not met; PBM binding z-score at or above it gives condition met.

Some entries whose results are on file:
input.sequence: ATCGAAAGGTCGTGAGGTGTGTATACAGAAAGGC
assigned.category: condition met

input.sequence: CGTCCAAGGTAAATGCTAGGTCAGTGAAAGCATT
assigned.category: condition met

input.sequence: CTCGAAAGGTGGTGCTCAGGTGAGTATACCAAAC
assigned.category: condition not met

[Q] Is PBM binding z-score at least 1? Consider CGAACTACGTCAAAGGACAGTGAAAGGCGACGTA
[A] condition not met

[Q] Hi team, for TGTCAAAGTTCTAAGGTAACGTAAGTATCCACAC , is the recorded PBM binding z-score at or above 1?
[A] condition not met

* * *

Tested on: RARb:RXRa (NR concentration 270 nM, RXRa partner concentration 90 nM)
assay.name: PBM binding z-score (relative to random genomic background probes); higher = stronger binding; sequences stand for … in GC…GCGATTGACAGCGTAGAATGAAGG
Task for the reader: assign each of the following sequences its reported PBM binding z-score.
Answers are plain numbers.

Solved entries:
input.sequence: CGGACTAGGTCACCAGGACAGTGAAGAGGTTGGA
PBM binding z-score: 4.15

input.sequence: CGAACTAGGTTAAAGGACAGTGAAAGGCGACGTA
PBM binding z-score: 1.72

input.sequence: CGAACTAGGTCAAATGACAGTGAAAGGCGACGTA
PBM binding z-score: 4.02

input.sequence: CCTTACGGGTCACTCAAGGTTATAGCATCGGAGT
PBM binding z-score: 4.07

input.sequence: GCTGCTCGGTCAACTGATGGTCAGCTAAAGCTCG
PBM binding z-score: 2.87

Required: PBM binding z-score, one value per sequence below.
1. TCAGATAGGTAAAGGTGAAAGTCGAACGATATGA
2. CCGAGTAGGTTAGGAGGGGGCATTCAGTGCGAAT

[A]
1. 2.16
2. 2.06

I'm hoping you can list PBM binding z-score for every sequence here, please.
1. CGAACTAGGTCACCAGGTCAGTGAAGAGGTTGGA
2. CTATGTAGGTTATGGGGGTCATTCAGTTTGAAAG

[A]
[4.61, 3.67]

Your task in this section: give PBM binding z-score for each listed record.
1. CGTCAAAGTTCAAGGTAATGTAACAGAAAGCAGC
2. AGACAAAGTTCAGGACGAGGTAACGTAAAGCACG
3. CCGAGTAGGTTACAAGGGGGCATTCAGTGCGAAT
4. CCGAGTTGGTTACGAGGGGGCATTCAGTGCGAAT
5. GCTTACGGGTCAAAGGTTATAGTATGAATAGAAT
6. TCGAGTAGGTTAGGGGGGCATTCAGGGATGAAGA
7. CCGAGTAGGTTAAGAGGGGGCATTCAGTGCGAAT
8. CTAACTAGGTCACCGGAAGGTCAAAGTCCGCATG

[A]
[5.14, 4.18, 2.17, 1.31, 4.25, 3.15, 2.28, 5.55]

For every item in the list below, what is its measured PBM binding z-score?
1. CCGGGTAGGTTACGAGGGGGCATTCAGTGCGAAT
2. TCGAGTAGGTTACGGGGGCATTTAGGGATGAAGA
3. CCTTACGGGTCAGTGACAGGTTATAGCATTTGGA

[A]
2.21
2.56
3.5

# return PBM binding z-score for each item in the list
1. CTCGAAAGGTCGAGCTCAGGTGAGTATACCAAAC
2. CGAACTAGGTCACCGGGACAGTGAAGAGGTTGGA
3. CAATCTAGGTCACGAAAGGTCAAAGTCGAATGAC
4. CGAACTAGTTCAAAGGACAGTGAAAGGCGACGTA
5. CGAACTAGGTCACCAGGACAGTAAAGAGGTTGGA

[A]
1. 4.2
2. 4.33
3. 5.76
4. 1.91
5. 4.12

[Q] Please give measured PBM binding z-score of the following entry: CGAACTAGGTCAGAGGACAGTGAAAGGCGACGTA
[A] 3.36

* * *

Tested on: VDR:RXRa (NR concentration 270 nM, RXRa partner concentration 90 nM)
assay.name: PBM binding z-score (relative to random genomic background probes); higher = stronger binding; sequences stand for … in GC…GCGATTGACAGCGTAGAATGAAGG
So I've got a bunch of sequences here, and I need their PBM binding z-score values.
Numbers only.

Below, each entry is followed by its recorded PBM binding z-score result.
input.sequence: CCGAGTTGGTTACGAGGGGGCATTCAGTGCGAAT
measurement.type: PBM binding z-score
numeric.result: 4.32
//
input.sequence: CAAGCTAGGTCAAGAGGTCAAAGTCCGCTTCCCG
measurement.type: PBM binding z-score
numeric.result: 5.9
//
input.sequence: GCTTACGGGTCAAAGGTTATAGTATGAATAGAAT
measurement.type: PBM binding z-score
numeric.result: 5.76
//
input.sequence: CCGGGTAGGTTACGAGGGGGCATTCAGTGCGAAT
measurement.type: PBM binding z-score
numeric.result: 5.31
//
input.sequence: CCTTACGGGTCAAGGTTGTAGCACGGGTGGTACG
measurement.type: PBM binding z-score
numeric.result: 3.02

Consider the following items and state reported PBM binding z-score for each.
1. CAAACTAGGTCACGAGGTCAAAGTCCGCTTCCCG
2. TGAATGAAGTTAAAGATCAGGGAACGTGGCGTCG
3. GCTGCTAGGTCAACTGATGGTCAGCTAAAGCTCG
4. CCTACTGGGCCATGAAAGGTCATTGATTCAGTGA

[A]
1: 6.42; 2: -0.41; 3: 1.47; 4: 3.82

Consider the following items and state reported PBM binding z-score for each.
1. CGAACTAGGTCACCACGACAGTGAAGAGGTTGGA
2. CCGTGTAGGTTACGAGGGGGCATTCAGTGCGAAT
3. CGAACTAGGTCAAAGGACAGTGGAAGGCGACGTA
4. CTATGTAGGTTAAGCGGGTCATTCAGTTTGAAAG
5. CCTTACGGGTCGCTGACAGGTTATAGCATTTGGA
6. TCTACTTGGTCACGGAGGTCACACACGACGGGTA

[A]
1: 2.04; 2: 5.7; 3: 1.21; 4: 5.74; 5: 0.961; 6: 5.85

* * *

Could you please report measured PBM binding z-score for the items listed next?
System: PPARg DBDmut IVT, anti-PPARg (DBD mutation: PPARg1 K132A/R137A, NR concentration 270 nM)
assay.name: PBM binding z-score (relative to random genomic background probes); higher = stronger binding; sequences stand for … in GC…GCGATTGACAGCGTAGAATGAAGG
One number for each entry.

Example entries begin here.
input.sequence: AGTCAGAGTTCATCTAGGTAACGTAAGATATGCT
PBM binding z-score: 0.893
--
input.sequence: CGCACTAGGTCACCAGGACAGTGAAGAGGTTGGA
PBM binding z-score: 2.13
--
input.sequence: CGAACTCGGTCACCAGGACAGTGAAGAGGTTGGA
PBM binding z-score: -0.647
--
input.sequence: GATACAGGGTCAGCTAGAGGGCAGAGTATGGAAA
PBM binding z-score: 0.18
--
input.sequence: CGTCCAAGGTCCATGCTAGGTCAGTGAAAGCATT
PBM binding z-score: -1

Hey, can you go through the list below and give me PBM binding z-score for every item?
1. CGAACTAGATCACCAGGACAGTGAAGAGGTTGGA
2. GGAACTAGGGCAAAGTTGATAGCATCTGTCGACG
3. ACTAGTAGGTCAGCTGAGGTCACACACAATTCGG
4. TAGCCTCGGTCATTGGGCCAGTATAGTACGCATC
5. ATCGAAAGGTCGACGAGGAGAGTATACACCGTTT

[A]
-0.163
2.6
2.31
-0.786
0.739

Could I get PBM binding z-score for every one of these entries?
1. CGTCAAAGTTCAAGGCAACGTAACAGAAAGCAGC
2. CCTTACAGGTCAAGGTTATAGCACGGGTGGTACG

[A]
1. 0.203
2. 0.925
